Assay: In vivo pharmacokinetics, plasma (UPLC-MS/MS)
Parameters: species or system rat
Details: male, SD; rat plasma; tail intravenous injection BA/AH-DPI saline solution 9 mg/kg; 30 min; read-out: Blood concentration of BA
attribute-measured: concentration at 30 min (ng/mL)
Form entry: value (ng/mL) — number only.

Ask: Which concentration at 30 min value is on record for O=C(O)[C@H]1O[C@@H](Oc2cc3oc(-c4ccccc4)cc(=O)c3c(O)c2O)[C@H](O)[C@@H](O)[C@@H]1O [BA, baicalin] ?
Reply: 338

* * *

Test: In vivo pharmacokinetics, plasma (UPLC-MS/MS)
Design: species or system rat
Conditions: male, SD; rat plasma; tail intravenous injection BA/AH-DPI saline solution 9 mg/kg; 15 min; read-out: Blood concentration of AH
Structures can show the parent of a compound that is named as a salt.
attribute-measured: concentration at 15 min (ng/mL)
Form entry: value (ng/mL) — number only.

Ask: Which concentration at 15 min value is on record for Nc1c(Br)cc(Br)cc1CNC1CCC(O)CC1 (stereo not shown) [AH, ambroxol hydrochloride] ?
Reply: 306
